- study system: Neuropeptide Y receptor type 4 (Homo sapiens, UniProt P50391)
- Sequence (P50391 whole entry): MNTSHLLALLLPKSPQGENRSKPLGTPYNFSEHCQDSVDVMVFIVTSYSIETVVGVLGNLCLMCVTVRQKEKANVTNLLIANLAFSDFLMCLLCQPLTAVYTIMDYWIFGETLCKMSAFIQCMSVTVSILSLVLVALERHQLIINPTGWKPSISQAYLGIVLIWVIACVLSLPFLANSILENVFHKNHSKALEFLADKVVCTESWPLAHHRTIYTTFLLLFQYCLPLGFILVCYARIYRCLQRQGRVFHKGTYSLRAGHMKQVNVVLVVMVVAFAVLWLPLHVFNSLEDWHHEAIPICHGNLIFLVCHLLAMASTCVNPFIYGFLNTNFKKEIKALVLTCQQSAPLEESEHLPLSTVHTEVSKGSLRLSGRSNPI
- protocol summary: Agonist activity at human neuropeptide Y Y4 receptor expressed in CHO-mtAEQ cells co-expressing Gqi5 by calcium aequorin assay
- Type: functional, cell-based
Starred links: 1 amine or outer side, 2 acyl side, 3 side chain; linkers in the order of their positions; H or OH if unused. Residues, ends and D or L forms follow the SMILES beside them. Groups on a side chain read outwards from the residue. *: point of attachment. Suc = O=C(CCC(=O)[*:2])[*:1]; CO = O=C([*:1])[*:2]; NH(CH2)3NH2 = NCCCN*
measurement label: pEC50
By convention, pEC50 is the negative base-10 log of a molar concentration.

For this molecule ( `CC(C)C[C@H](NC(=O)[C@H](CCCNC(=N)NC(=O)NCCCCN)NC(=O)[C@H](Cc1ccc(O)cc1)NC(=O)[C@H](CCCNC(=N)N)NC(=O)CCC(=O)O)C(=O)N[C@@H](CCCNC(=N)N)C(=O)N[C@@H](Cc1ccc(O)cc1)C(N)=O` ), measured pEC50 is 6.69

Per the record, N=C(N)NCCC[C@H](NC(=O)CCC(=O)O)C(=O)N[C@@H](Cc1ccc(O)cc1)C(=O)N[C@@H](CCCNC(=N)NC(=O)NCCCN)C(=O)N[C@@H](Cc1c[nH]c2ccccc12)C(=O)N[C@@H](CCCNC(=N)N)C(=O)N[C@@H](Cc1ccc(O)cc1)C(N)=O (Suc-RYR([CO-NH(CH2)3NH2])WRY-NH2) has pEC50 of 7.04

Entry under test: CC(C)C[C@H](NC(=O)[C@@H]1CCCNC(=N)NC(=O)NCCCCNC(=O)CCC(=O)N[C@@H](CCCNC(=N)N)C(=O)N1)C(=O)N[C@@H](CCCNC(=N)N)C(=O)N[C@@H](Cc1ccc(O)cc1)C(N)=O (HELM PEPTIDE1{R.[N=C(NCCC[C@H](N[*:1])C(=O)[*:2])N[*:3]].L.R.Y.[am]}|CHEM1{[O=C(CCC(=O)[*:1])NCCCCNC(=O)[*:2]]}$PEPTIDE1,CHEM1,1:R1-1:R1|PEPTIDE1,CHEM1,2:R3-1:R2$$$V2.0) . Its pEC50 was 6.44

====

- study system: Neuropeptide Y receptor type 4 (Homo sapiens, UniProt P50391)
- protocol summary: Displacement of [3H]UR-KK200 from human neuropeptide Y Y4 receptor expressed in CHO-mtAEQ cells co-expressing Gqi5 assessed as fold change in affinity measured after 90 mins by scintillation counting analysis relative to Ac-Arg-Tyr-Arg-Leu-Arg-Tyr-NH2
- Format: cell-based
- condition notes: filed as agonist
Residues, ends and D or L forms follow the SMILES beside them.
measurement label: fold change (FC)
Would you mind answering with just the numeric figure?

Examples with answers:
// `CC(C)C[C@H](NC(=O)[C@@H]1CCCNC(=N)NC(=O)NCCCNC(=O)CCC(=O)N[C@@H](CCCNC(=N)N)C(=O)N[C@@H](Cc2ccc(O)cc2)C(=O)N1)C(=O)N[C@@H](CCCNC(=N)N)C(=O)N[C@@H](Cc1ccc(O)cc1)C(N)=O` : fold change (FC) value = 26

// fold change (FC) value for N=C(N)NCCC[C@H](NC(=O)CCC(=O)O)C(=O)N[C@@H](Cc1ccc(O)cc1)C(=O)N[C@@H](CCCNC(=N)NC(=O)NCCCCN)C(=O)N[C@@H](Cc1c[nH]c2ccccc12)C(=O)N[C@@H](CCCNC(=N)N)C(=O)N[C@@H](Cc1ccc(O)cc1)C(N)=O (single isomer, unassigned) : -15

fold change (FC) recorded for this molecule, N=C(N)NCCC[C@@H]1NC(=O)CCC(=O)NCCCCNC(=O)NC(=N)NCCC[C@@H](C(=O)N[C@@H](Cc2c[nH]c3ccccc23)C(=O)N[C@@H](CCCNC(=N)N)C(=O)N[C@@H](Cc2ccc(O)cc2)C(N)=O)NC(=O)[C@H](Cc2ccc(O)cc2)NC1=O (HELM PEPTIDE1{R.Y.[N=C(NCCC[C@H](N[*:1])C(=O)[*:2])N[*:3]].W.R.Y.[am]}|CHEM1{[O=C(CCC(=O)[*:1])NCCCCNC(=O)[*:2]]}$PEPTIDE1,CHEM1,1:R1-1:R1|PEPTIDE1,CHEM1,3:R3-1:R2$$$V2.0) , is 2.1

Others:
The reported value for N=C(N)NCCC[C@@H]1NC(=O)CCC(=O)NCCCNC(=O)NC(=N)NCCC[C@@H](C(=O)N[C@@H](Cc2c[nH]c3ccccc23)C(=O)N[C@@H](CCCNC(=N)N)C(=O)N[C@@H](Cc2ccc(O)cc2)C(N)=O)NC(=O)[C@H](Cc2ccc(O)cc2)NC1=O (HELM PEPTIDE1{R.Y.[N=C(NCCC[C@H](N[*:1])C(=O)[*:2])N[*:3]].W.R.Y.[am]}|CHEM1{[O=C(CCC(=O)[*:1])NCCCNC(=O)[*:2]]}$PEPTIDE1,CHEM1,1:R1-1:R1|PEPTIDE1,CHEM1,3:R3-1:R2$$$V2.0) in terms of fold change (FC) is -8.2

====

- protocol summary: Stability in human plasma assessed as intact peptide measured after 30 mins at 37 degC by RP-HPLC analysis
- Format: ADME, cell-free
- condition notes: read-out: Stability
Residues, ends and D or L forms follow the SMILES beside them.
Each entry below carries its recorded remaining at 0.5 h.

Value of measured remaining at 0.5 h for the entry `CC(C)C[C@H](NC(=O)[C@@H]1CCCNC(=N)NC(=O)NCCCCNC(=O)CCC(=O)N[C@@H](CCCNC(=N)N)C(=O)N[C@@H](Cc2ccc(O)cc2)C(=O)N1)C(=O)N[C@@H](CCCNC(=N)N)C(=O)N[C@@H](Cc1ccc(O)cc1)C(N)=O` : > 99%

Sample `CC(C)C[C@H](NC(=O)[C@H](CCCNC(=N)NC(=O)NCCCCN)NC(=O)[C@H](Cc1ccc(O)cc1)NC(=O)[C@H](CCCNC(=N)N)NC(=O)CCC(=O)O)C(=O)N[C@@H](CCCNC(=N)N)C(=O)N[C@@H](Cc1ccc(O)cc1)C(N)=O` ; remaining at 0.5 h observed: > 99%

Field: next compound
Recorded remaining at 0.5 h (compound CC(=O)N[C@@H](CCCNC(=N)N)C(=O)N[C@@H](Cc1ccc(O)cc1)C(=O)N[C@@H](CCCN/C(N)=N/C(=O)NCCCCN)C(=O)N[C@@H](CC(C)C)C(=O)N[C@@H](CCCNC(=N)N)C(=O)N[C@@H](Cc1ccc(O)cc1)C(N)=O (HELM PEPTIDE1{[ac].R.Y.[NCCCCNC(=O)/N=C(\N)NCCC[C@H](N[*:1])C(=O)[*:2]].L.R.Y.[am]}$$$$V2.0) ): > 99%

====

- study system: Neuropeptide Y receptor type 4 (Homo sapiens)
- protocol summary: Agonist activity at human neuropeptide Y Y4 receptor expressed in CHO-mtAEQ cells co-expressing Gqi5 by calcium aequorin assay
- Assay type: functional, cell-based
Residues, ends and D or L forms follow the SMILES beside them.
List of EC50 values.
Field format: number, assumed nM, no unit text.

Recorded result, `CC(C)C[C@H](NC(=O)[C@@H]1CCCNC(=N)NC(=O)NCCCCNC(=O)CCC(=O)N[C@@H](CCCNC(=N)N)C(=O)N[C@@H](Cc2c[nH]c3ccccc23)C(=O)N1)C(=O)N[C@@H](CCCNC(=N)N)C(=O)N[C@@H](Cc1ccc(O)cc1)C(N)=O` , EC50: 1

New cases:
Consider N=C(N)NCCC[C@@H]1NC(=O)CCC(=O)NCCCCNC(=O)NC(=N)NCCC[C@@H](C(=O)N[C@@H](Cc2c[nH]c3ccccc23)C(=O)N[C@@H](CCCNC(=N)N)C(=O)N[C@@H](Cc2ccc(O)cc2)C(N)=O)NC(=O)[C@H](Cc2ccc(O)cc2)NC1=O (HELM PEPTIDE1{R.Y.[N=C(NCCC[C@H](N[*:1])C(=O)[*:2])N[*:3]].W.R.Y.[am]}|CHEM1{[O=C(CCC(=O)[*:1])NCCCCNC(=O)[*:2]]}$PEPTIDE1,CHEM1,1:R1-1:R1|PEPTIDE1,CHEM1,3:R3-1:R2$$$V2.0) . Its measured EC50 is 191

====

- study system: UniProtKB P50391
- protocol summary: Intrinsic activity at human neuropeptide Y Y4 receptor expressed in CHO-mtAEQ cells co-expressing Gqi5 by calcium aequorin assay
- Format: functional, cell-based
Activity calls are given as the source filed them. No cut-off for these calls is given here. Residues, ends and D or L forms follow the SMILES beside them.
measurement label: Intrinsic activity

The molecule listed as `CC(C)C[C@H](NC(=O)[C@@H]1CCC(=O)NCC(=O)N[C@H](CCCNC(=N)N)C(=O)N[C@@H](CCCNC(=N)N)C(=O)N1)C(=O)N[C@@H](CCCNC(=N)N)C(=O)N[C@@H](Cc1ccc(O)cc1)C(N)=O` shows Intrinsic activity equal to inactive

// field: Intrinsic activity; key: CC(C)C[C@H](NC(=O)[C@@H]1CCCNC(=N)NC(=O)NCCCCNC(=O)CCC(=O)N[C@@H](CCCNC(=N)N)C(=O)N1)C(=O)N[C@@H](CCCNC(=N)N)C(=O)N[C@@H](Cc1ccc(O)cc1)C(N)=O (HELM PEPTIDE1{R.[N=C(NCCC[C@H](N[*:1])C(=O)[*:2])N[*:3]].L.R.Y.[am]}|CHEM1{[O=C(CCC(=O)[*:1])NCCCCNC(=O)[*:2]]}$PEPTIDE1,CHEM1,1:R1-1:R1|PEPTIDE1,CHEM1,2:R3-1:R2$$$V2.0) ; value = 61%

Intrinsic activity reading for N=C(N)NCCC[C@@H]1NC(=O)CCC(=O)NCCCCNC(=O)NC(=N)NCCC[C@@H](C(=O)N[C@@H](Cc2c[nH]c3ccccc23)C(=O)N[C@@H](CCCNC(=N)N)C(=O)N[C@@H](Cc2ccc(O)cc2)C(N)=O)NC(=O)[C@H](Cc2ccc(O)cc2)NC1=O (HELM PEPTIDE1{R.Y.[N=C(NCCC[C@H](N[*:1])C(=O)[*:2])N[*:3]].W.R.Y.[am]}|CHEM1{[O=C(CCC(=O)[*:1])NCCCCNC(=O)[*:2]]}$PEPTIDE1,CHEM1,1:R1-1:R1|PEPTIDE1,CHEM1,3:R3-1:R2$$$V2.0) : 61%

Lab note: measured Intrinsic activity of N=C(N)NCCC[C@@H]1NC(=O)CCC(=O)NCCCNC(=O)NC(=N)NCCC[C@@H](C(=O)N[C@@H](Cc2c[nH]c3ccccc23)C(=O)N[C@@H](CCCNC(=N)N)C(=O)N[C@@H](Cc2ccc(O)cc2)C(N)=O)NC(=O)[C@H](Cc2ccc(O)cc2)NC1=O (HELM PEPTIDE1{R.Y.[N=C(NCCC[C@H](N[*:1])C(=O)[*:2])N[*:3]].W.R.Y.[am]}|CHEM1{[O=C(CCC(=O)[*:1])NCCCNC(=O)[*:2]]}$PEPTIDE1,CHEM1,1:R1-1:R1|PEPTIDE1,CHEM1,3:R3-1:R2$$$V2.0) was 45%

Reported Intrinsic activity of `CC(C)C[C@H](NC(=O)[C@@H]1CCCNC(=N)NC(=O)NCCCCNC(=O)CCC(=O)N[C@@H](CCCNC(=N)N)C(=O)N[C@@H](Cc2c[nH]c3ccccc23)C(=O)N1)C(=O)N[C@@H](CCCNC(=N)N)C(=O)N[C@@H](Cc1ccc(O)cc1)C(N)=O` : 84%

The molecule identified as `CC(C)C[C@H](NC(=O)[C@H](CCCNC(=N)NC(=O)NCCCCN)NC(=O)[C@H](Cc1c[nH]c2ccccc12)NC(=O)[C@H](CCCNC(=N)N)NC(=O)CCC(=O)O)C(=O)N[C@@H](CCCNC(=N)N)C(=O)N[C@@H](Cc1ccc(O)cc1)C(N)=O` registered its Intrinsic activity at 67%

Continue with the molecule presented below.
Record `CC(C)C[C@@H]1NC(=O)[C@H](CCCNC(=N)N)NC(=O)[C@H](Cc2ccc(O)cc2)NC(=O)[C@H](CCCNC(=N)N)NC(=O)CCC(=O)NCCCNC(=O)NC(=N)NCCC[C@@H](C(=O)N[C@@H](Cc2ccc(O)cc2)C(N)=O)NC1=O` , field Intrinsic activity: inactive
